Data credit: the supplement of paper PMC10307832

Overview of reported relative viability across a group of compounds:
test system: NCI-H460; experiment: relative viability (nuclei count vs DMSO), 5 days (fraction); higher = more cells survive; settings: first compound 0.000632 µM
readoutType: relative viability

- CC(=O)O[C@@]12CO[C@@H]1C[C@H](O)[C@@]1(C)C(=O)[C@H](O)C3=C(C)[C@@H](OC(=O)[C@H](O)[C@@H](NC(=O)OC(C)(C)C)c4ccccc4)C[C@@](O)([C@@H](OC(=O)c4ccccc4)[C@H]21)C3(C)C [Docetaxel] + C[C@@H](Oc1cc(-c2cnn(C3CCNCC3)c2)cnc1N)c1c(Cl)ccc(F)c1Cl [Crizotinib] (partner 1 µM): 0.673
- CC(=O)O[C@@]12CO[C@@H]1C[C@H](O)[C@@]1(C)C(=O)[C@H](O)C3=C(C)[C@@H](OC(=O)[C@H](O)[C@@H](NC(=O)OC(C)(C)C)c4ccccc4)C[C@@](O)([C@@H](OC(=O)c4ccccc4)[C@H]21)C3(C)C [Docetaxel] + Nc1nc2[nH]cc(CCc3ccc(C(=O)N[C@@H](CCC(=O)O)C(=O)O)cc3)c2c(=O)[nH]1 [Pemetrexed] (partner 0.2 µM): 0.0652
- CC(=O)O[C@@]12CO[C@@H]1C[C@H](O)[C@@]1(C)C(=O)[C@H](O)C3=C(C)[C@@H](OC(=O)[C@H](O)[C@@H](NC(=O)OC(C)(C)C)c4ccccc4)C[C@@](O)([C@@H](OC(=O)c4ccccc4)[C@H]21)C3(C)C [Docetaxel] + CS(=O)(=O)CCNCc1ccc(-c2ccc3ncnc(Nc4ccc(OCc5cccc(F)c5)c(Cl)c4)c3c2)o1 [Lapatinib] (partner 2 µM): 0.163
- CC(=O)O[C@@]12CO[C@@H]1C[C@H](O)[C@@]1(C)C(=O)[C@H](O)C3=C(C)[C@@H](OC(=O)[C@H](O)[C@@H](NC(=O)OC(C)(C)C)c4ccccc4)C[C@@](O)([C@@H](OC(=O)c4ccccc4)[C@H]21)C3(C)C [Docetaxel] + C[C@]1(O)C[C@@H](c2nc(-c3ccc4ccc(-c5ccccc5)nc4c3)c3c(N)nccn32)C1 [Linsitinib] (partner 1 µM): 0.153
- CC(=O)O[C@@]12CO[C@@H]1C[C@H](O)[C@@]1(C)C(=O)[C@H](O)C3=C(C)[C@@H](OC(=O)[C@H](O)[C@@H](NC(=O)OC(C)(C)C)c4ccccc4)C[C@@](O)([C@@H](OC(=O)c4ccccc4)[C@H]21)C3(C)C [Docetaxel] + Cc1cc(Nc2cc(N3CCN(C)CC3)nc(Sc3ccc(NC(=O)C4CC4)cc3)n2)n[nH]1 [Tozasertib] (partner 0.1 µM): 0.368
- CC(=O)O[C@@]12CO[C@@H]1C[C@H](O)[C@@]1(C)C(=O)[C@H](O)C3=C(C)[C@@H](OC(=O)[C@H](O)[C@@H](NC(=O)OC(C)(C)C)c4ccccc4)C[C@@](O)([C@@H](OC(=O)c4ccccc4)[C@H]21)C3(C)C [Docetaxel] + O=C(c1cc(Cc2n[nH]c(=O)c3ccccc23)ccc1F)N1CCN(C(=O)C2CC2)CC1 [Olaparib] (partner 8 µM): 0.31

---

system: NCI-H1437; assay: relative viability (nuclei count vs DMSO), 5 days (fraction); higher = more cells survive; details: first compound 0.1265 µM
Listing of entries alongside the reported relative viability.
readoutType: relative viability

• Cc1sc2c(c1C)C(c1ccc(Cl)cc1)=N[C@@H](CC(=O)OC(C)(C)C)c1nnc(C)n1-2 [JQ1] + CCNC(=O)c1noc(-c2cc(C(C)C)c(O)cc2O)c1-c1ccc(CN2CCOCC2)cc1 [Luminespib] (partner 0.01 µM) = 1.09
• Cc1sc2c(c1C)C(c1ccc(Cl)cc1)=N[C@@H](CC(=O)OC(C)(C)C)c1nnc(C)n1-2 [JQ1] + NC(=O)Nc1cc(-c2cccc(F)c2)sc1C(=O)N[C@H]1CCCNC1 [AZD7762] (partner 0.2 µM) = 0.979
• Cc1sc2c(c1C)C(c1ccc(Cl)cc1)=N[C@@H](CC(=O)OC(C)(C)C)c1nnc(C)n1-2 [JQ1] + COc1cccc2cc(-c3nc([C@H]4CC[C@H](C(=O)O)CC4)n4ncnc(N)c34)[nH]c12 [OSI-027] (partner 0.5 µM) = 0.809
• Cc1sc2c(c1C)C(c1ccc(Cl)cc1)=N[C@@H](CC(=O)OC(C)(C)C)c1nnc(C)n1-2 [JQ1] + COc1cc2c(Oc3ccc(NC(=O)C4(C(=O)Nc5ccc(F)cc5)CC4)cc3F)ccnc2cc1OCCCN1CCOCC1 [Foretinib] (partner 0.25 µM) = 1.23
• Cc1sc2c(c1C)C(c1ccc(Cl)cc1)=N[C@@H](CC(=O)OC(C)(C)C)c1nnc(C)n1-2 [JQ1] + Cc1nc(NC(=O)N2CCC[C@H]2C(N)=O)sc1-c1ccnc(C(C)(C)C(F)(F)F)c1 [Alpelisib] (partner 2 µM) = 0.803

---

Form field: relative viability (one value per entry).
test system: COR-L 105; assay: relative viability (nuclei count vs DMSO), 5 days (fraction); higher = more cells survive; conditions: first compound 158.11 µM
readoutType: relative viability

* O=C(O)CCCCC(CCSCc1ccccc1)SCc1ccccc1 (centres undefined) [CPI-613] + Cc1cc(Nc2cc(N3CCN(C)CC3)nc(Sc3ccc(NC(=O)C4CC4)cc3)n2)n[nH]1 [Tozasertib] (partner 0.1 µM) | 0.321
* O=C(O)CCCCC(CCSCc1ccccc1)SCc1ccccc1 (centres undefined) [CPI-613] + CC(=O)Nc1cccc(-n2c(=O)n(C3CC3)c(=O)c3c(Nc4ccc(I)cc4F)n(C)c(=O)c(C)c32)c1 [Trametinib] (partner 0.02 µM) | 0.355
* O=C(O)CCCCC(CCSCc1ccccc1)SCc1ccccc1 (centres undefined) [CPI-613] + Nc1ncn([C@H]2C[C@H](O)[C@@H](CO)O2)c(=O)n1 [Decitabine] (partner 2 µM) | 0.375
* O=C(O)CCCCC(CCSCc1ccccc1)SCc1ccccc1 (centres undefined) [CPI-613] + C[C@]1(O)C[C@@H](c2nc(-c3ccc4ccc(-c5ccccc5)nc4c3)c3c(N)nccn32)C1 [Linsitinib] (partner 1 µM) | 0.664

---

system: LXF-289; assay: relative viability (nuclei count vs DMSO), 5 days (fraction); higher = more cells survive; conditions: first compound 1.265 µM
Catalogue of relative viability values
readoutType: relative viability

• Cc1sc2c(c1C)C(c1ccc(Cl)cc1)=N[C@@H](CC(=O)OC(C)(C)C)c1nnc(C)n1-2 [JQ1] + Nc1nc2[nH]cc(CCc3ccc(C(=O)N[C@@H](CCC(=O)O)C(=O)O)cc3)c2c(=O)[nH]1 [Pemetrexed] (partner 0.2 µM) = 0.59
• Cc1sc2c(c1C)C(c1ccc(Cl)cc1)=N[C@@H](CC(=O)OC(C)(C)C)c1nnc(C)n1-2 [JQ1] + CC(=O)Nc1cccc(-n2c(=O)n(C3CC3)c(=O)c3c(Nc4ccc(I)cc4F)n(C)c(=O)c(C)c32)c1 [Trametinib] (partner 0.02 µM) = 0.607
• Cc1sc2c(c1C)C(c1ccc(Cl)cc1)=N[C@@H](CC(=O)OC(C)(C)C)c1nnc(C)n1-2 [JQ1] + CS(=O)(=O)CCNCc1ccc(-c2ccc3ncnc(Nc4ccc(OCc5cccc(F)c5)c(Cl)c4)c3c2)o1 [Lapatinib] (partner 2 µM) = 0.851
• Cc1sc2c(c1C)C(c1ccc(Cl)cc1)=N[C@@H](CC(=O)OC(C)(C)C)c1nnc(C)n1-2 [JQ1] + CC(C)C[C@H](NC(=O)[C@H](Cc1ccccc1)NC(=O)c1cnccn1)B(O)O [Bortezomib] (partner 0.002 µM) = 0.894
• Cc1sc2c(c1C)C(c1ccc(Cl)cc1)=N[C@@H](CC(=O)OC(C)(C)C)c1nnc(C)n1-2 [JQ1] + O=C(c1cc(Cc2n[nH]c(=O)c3ccccc23)ccc1F)N1CCN(C(=O)C2CC2)CC1 [Olaparib] (partner 8 µM) = 0.47

---

Parameter relative viability: see the listing below.
system: NCI-H1975; assay: relative viability (nuclei count vs DMSO), 5 days (fraction); higher = more cells survive; conditions: first compound 50 µM
readoutType: relative viability

* O=C(O)CCCCC(CCSCc1ccccc1)SCc1ccccc1 (centres undefined) [CPI-613] + O=C(c1cc(Cc2n[nH]c(=O)c3ccccc23)ccc1F)N1CCN(C(=O)C2CC2)CC1 [Olaparib] (partner 8 µM) | 0.85
* O=C(O)CCCCC(CCSCc1ccccc1)SCc1ccccc1 (centres undefined) [CPI-613] + Cc1nc(NC(=O)N2CCC[C@H]2C(N)=O)sc1-c1ccnc(C(C)(C)C(F)(F)F)c1 [Alpelisib] (partner 2 µM) | 0.692
* O=C(O)CCCCC(CCSCc1ccccc1)SCc1ccccc1 (centres undefined) [CPI-613] + CCNC(=O)c1noc(-c2cc(C(C)C)c(O)cc2O)c1-c1ccc(CN2CCOCC2)cc1 [Luminespib] (partner 0.01 µM) | 0.194
* O=C(O)CCCCC(CCSCc1ccccc1)SCc1ccccc1 (centres undefined) [CPI-613] + CS(=O)(=O)N1CCN(Cc2cc3nc(-c4cccc5[nH]ncc45)nc(N4CCOCC4)c3s2)CC1 [Pictilisib] (partner 1 µM) | 0.314
